Tested on: SN12C
Assay Protocol: NCI tumour cell line growth inhibition, 48 h
Activity calls are given as the source filed them. Rule as the data show it: active = GI50 up to about 1.1 µM and inactive = higher.
Property Measured: GI50

[[record]]
compound = "Cc1nn2c(=O)c([N+](=O)[O-])c(/C=C/c3ccco3)nc2s1"
target_system = "SN12C"
val = "64.9 µM (inactive)"

[[record]]
compound = "Cc1ccc(C2(O)CS/C(=N\\C34CC5CC(CC(C5)C3)C4)N2C(P(=O)(O)O)P(=O)(O)O)cc1 (centres undefined)"
target_system = "SN12C"
val = "89.3 µM (inactive)"

[[record]]
compound = "Cc1cc(Cl)ccc1Nc1nc2c(s1)C(=O)c1ccccc1C2=O"
target_system = "SN12C"
val = "1.8 µM (inactive)"

[[record]]
compound = "COC1CC(OC2C(C)OC(OC3C(C)OC(OC4C(C)OC(O[C@H]5CC[C@@]6(C)C(=CC[C@]7(O)[C@@H]6C[C@@H](OC(C)=O)[C@@]6(C)[C@]7(O)CC[C@@]6(O)C(C)=O)C5)CC4OC)CC3OC)CC2OC)OC(C)C1O (some centres undefined)"
target_system = "SN12C"
val = "> 25 µM (inactive)"

[[record]]
compound = "CCCCCCCCCCCCCCCCCc1nnc(N)o1"
target_system = "SN12C"
val = "> 100 µM (inactive)"


Indicate its recorded GI50; the compound in question is "CC(=O)Nc1ccccc1-c1nc2ccccc2nc1C"
> 100 µM (inactive)

Quote GI50 reported for "O=[N+]([O-])C(C(Cl)=C(Cl)Cl)=C(N1CCOCC1)N1CCOCC1" please.
> 100 µM (inactive)

Please look at this compound and report its GI50: CN1CCc2cc(N)cc3c2C1Cc1ccc2c(c1-3)OCO2 (centres undefined)
26.9 µM (inactive)

Complete the entry with GI50 for "C1CNOCCCONCCCNOCCCONC1"
77.4 µM (inactive)

---

System: HT-29
Assay Protocol: NCI tumour cell line growth inhibition, 48 h
Activity calls are given as the source filed them. Rule as the data show it: active = GI50 up to about 1.1 µM and inactive = higher.
Outcome field: choose from t for active, f for inactive

Please review the entries below; each comes with its answer.
[[record]]
molecule = "c1ccc2sc(C3(N4CCCCCC4)CCCCC3)cc2c1"
class_assignment = "f"

[[record]]
molecule = "Cc1c2ccncc2c(C)c2c1[nH]c1ccc(OC(C)C)cc12"
class_assignment = "f"

[[record]]
molecule = "N#CC1=C(N2CCOCC2)CCC1"
class_assignment = "f"

[[record]]
molecule = "COc1c2cc([N+](=O)[O-])cc1CNC(=O)CN1CCOCCOCCN(CCOCCOCC1)CC(=O)NC2"
class_assignment = "f"

[[record]]
molecule = "O=C1c2ccccc2C(=O)c2c(OCCOCCO)cccc21"
class_assignment = "f"


Tell me the assay call for "CCCCCCCCCCCCCCCCCc1nnc(N)o1" please.
f

# lookup: test call for "Cc1c(/C=N/NC(=O)c2ccccc2O)c(=O)n(-c2ccccc2)n1C"
f

Query: recorded result category for "CC1=NN(c2cccc(Cl)c2)C(=N/c2nc3ccccc3s2)/C1=C\c1ccccc1O" in this test
f

For this molecule, state the assay outcome: CCOC(=O)CCC1(C(=O)OCC)CCCC1=O (stereo unspecified)
f

---

Tested on: HCT-116
Assay Protocol: NCI tumour cell line growth inhibition, 48 h
Active and inactive are the calls of the source. Rule as the data show it: active = GI50 up to about 1.1 µM and inactive = higher.
Entry note: the call must match one of active, inactive

Could you check what this test reported for CN1C(=O)C2C=C3CCCCC3=CC2N(C)C1=O (stereo unspecified) ?
inactive

Hey, what did the test say about COc1ccc2c(c1OC)C(C(Cl)(Cl)Cl)N1CCc3cc4c(cc3C1=C2)OCO4 (stereo unspecified) ?
inactive

# outcome recorded in this test, key = "CC(C)CCC[C@@H](C)[C@H]1CC[C@H]2[C@@H]3CC[C@H]4C[C@H](N)CC[C@]4(C)[C@H]3CC[C@]12C"
inactive

Which outcome did this test record for the molecule "O=C(Nc1ccc(Cl)cc1)c1cc(S(=O)(=O)Nc2n[nH]c(=O)n2-c2ccccc2)c(S)cc1Cl" ?
inactive

Tell me the assay call for "Cc1c2ccncc2c(C)c2c1[nH]c1ccc(OC(C)C)cc12" please.
active

Recorded test call requested for "N[C@H](C(=O)O)[C@@H]1CC(Br)=NO1"
inactive
